- Target: Amine oxidase [flavin-containing] B (Homo sapiens)
- Sequence (P27338 whole entry): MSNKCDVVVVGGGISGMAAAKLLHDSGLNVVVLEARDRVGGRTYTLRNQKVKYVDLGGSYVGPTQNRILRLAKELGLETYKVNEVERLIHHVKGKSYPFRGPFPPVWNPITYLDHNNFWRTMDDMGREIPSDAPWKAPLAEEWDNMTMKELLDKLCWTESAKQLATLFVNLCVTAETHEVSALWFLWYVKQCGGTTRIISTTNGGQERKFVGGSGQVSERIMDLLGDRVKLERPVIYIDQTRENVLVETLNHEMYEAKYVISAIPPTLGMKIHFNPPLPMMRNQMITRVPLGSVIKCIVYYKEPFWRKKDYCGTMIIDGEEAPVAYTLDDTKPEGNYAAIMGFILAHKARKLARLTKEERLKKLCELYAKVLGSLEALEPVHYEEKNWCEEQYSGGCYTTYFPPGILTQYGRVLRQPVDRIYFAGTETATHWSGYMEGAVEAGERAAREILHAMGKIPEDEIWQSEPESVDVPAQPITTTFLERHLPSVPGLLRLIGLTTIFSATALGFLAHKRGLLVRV
- Assay overview: Inhibition of recombinant human MAO-B expressed in baculovirus infected BTI insect cells preincubated for 30 mins followed by addition of p-tyramine as substrate measured over 45 mins by Amplex Red MAO assay
Measure: IC50

smiles_representation=Cn1c(=O)c2c(nc3n2CCN(Cc2ccc(Cl)c(Cl)c2)C3)n(C)c1=O measure=IC50 value_reported="0.197 µM"
smiles_representation=Cn1c(=O)c2c(nc3n2CCN(CCc2ccc(O)cc2)C3)n(C)c1=O measure=IC50 value_reported="> 10 µM"
smiles_representation=COc1cccc(C#CCN2CCn3c(nc4c3c(=O)n(C)c(=O)n4C)C2)c1 measure=IC50 value_reported="> 10 µM"
smiles_representation=Cn1c(=O)c2c(nc3n2CCN(CCc2cccs2)C3)n(C)c1=O measure=IC50 value_reported="> 10 µM"

Next item in the queue.
Return the recorded IC50 value; entry: `Cn1c(=O)c2c(nc3n2CCN([C@H]2CCc4ccccc42)C3)n(C)c1=O`
> 10 µM

* * *

- Assay overview: Thermodynamic solubility of the compound at pH 7.4
- Type: physicochemical
- Condition notes: buffer, read-out: Therm_solubility
Measure: solubility thermodynamic (µg/mL)

Below, each entry is followed by its recorded solubility thermodynamic result.
molecule=Cc1cc(CN2CCn3c(nc4c3c(=O)n(C)c(=O)n4C)C2)n(C)n1 value_reported=700
molecule=Cn1c(=O)c2c(nc3n2CCN(Cc2csc(-c4cccs4)n2)C3)n(C)c1=O value_reported=700
molecule=Cn1c(=O)c2c(nc3n2CCN(CCCc2ccccc2)C3)n(C)c1=O value_reported=80
molecule=Cn1c(=O)c2c(nc3n2CCN(CCOc2ccccc2)C3)n(C)c1=O value_reported=20

1: Cn1c(=O)c2c(nc3n2CCN(Cc2csc(-c4cccc(Cl)c4)n2)C3)n(C)c1=O
2: Cn1c(=O)c2c(nc3n2CCN(CC(O)c2ccccc2)C3)n(C)c1=O (stereo not given)
Consider 1 and 2 . Which of these has its solubility thermodynamic at a higher number? Bench note: the answer is the label of the chosen record.
2
(2: 90 µg/mL, 1: 2 µg/mL)

a: Cc1sc(-c2ccc(C(F)(F)F)cc2)nc1CN1CCn2c(nc3c2c(=O)n(C)c(=O)n3C)C1
b: C#CCN1CCn2c(nc3c2c(=O)n(C)c(=O)n3C)C1
c: Cn1c(=O)c2c(nc3n2CCN(CCn2cccc2)C3)n(C)c1=O
d: Cn1c(=O)c2c(nc3n2CCN(CCCc2ccc(Cl)cc2)C3)n(C)c1=O
Order each entry by recorded solubility thermodynamic, climbing from the minimum. List labels; respect the requested ordering.
a, d, b, c
(a: 1 µg/mL, d: 4 µg/mL, b: 800 µg/mL, c: 1200 µg/mL)
